Read-out: Human Leukocyte Antigen - DR isotype (HLADR), HLA-DRA (gene 3122)
assay-name: BSK_3C_HLADR: BioMAP Diversity Plus: 3C Assay for Human Leukocyte Antigen - DR isotype (HLADR) Biomarker Activity (AID 2283019)
condition-context: primary human endothelial cells (HUVEC); actives raise or lower the signal
Description: BSK_3C is a cell-based, multiplexed-readout assay that uses umbilical vein endothelium, a human vascular primary cell, with measurements taken at 24 hours after chemical dosing in a 96-well plate.BSK_3C_HLADR is an assay component measured in the BSK_3C assay. It measures HLA-DR antibody related to regulation of gene expression using ELISA technology.Data from the assay component BSK_3C_HLADR was analyzed into 1 assay endpoint. […]
Active and inactive are the calls of the source. How the source made its calls: active means hit-call score of the fitted dose curve at least 0.9, where 1 is the maximum; inactive means score below 0.9.
Classes used: YES for active, NO for inactive

>  <molecule>
O=C(O)Cc1cc(I)c(Oc2ccc(O)c(I)c2)c(I)c1

>  <cat>
NO

$$$$
>  <molecule>
CCCC(=O)OCCC(C)C

>  <cat>
NO

$$$$
>  <molecule>
OCCO

>  <cat>
NO

$$$$
>  <molecule>
CCN(CC)C(=O)c1cc(S(=O)(=O)Cc2ccccc2)c(N2CCC(c3ccccc3)CC2)cc1N(CC)CCN(C)C

>  <cat>
YES

$$$$
>  <molecule>
CN(C)C(=O)C1(N2CCCCC2)CCN(CC[C@@]2(c3ccc(Cl)c(Cl)c3)CN(C(=O)c3ccccc3)CCO2)CC1

>  <cat>
YES

$$$$
>  <molecule>
NCc1cccc(C2CCN(C(=O)c3ccc(C#Cc4ccccc4F)o3)CC2)c1

>  <cat>
YES

$$$$
>  <molecule>
CN(C[C@@H](CC[N+]12CCC(C3CCCCC3)(CC1)CC2)c1ccc(Cl)c(Cl)c1)C(=O)c1cc(C(F)(F)F)cc(C(F)(F)F)c1

>  <cat>
YES

$$$$
>  <molecule>
CCCCCCCCOC(=O)c1cc(O)c(O)c(O)c1

>  <cat>
YES

$$$$
>  <molecule>
CO[C@H]1/C=C/O[C@@]2(C)Oc3c(C)c(O)c4c(O)c(c(/C=N/N5CCN(C)CC5)c(O)c4c3C2=O)NC(=O)/C(C)=C\C=C\[C@H](C)[C@H](O)[C@@H](C)[C@@H](O)[C@@H](C)[C@H](OC(C)=O)[C@@H]1C

>  <cat>
NO

$$$$
>  <molecule>
CCN(Cc1cccnc1)C(=O)c1cccc(Cl)c1[C@]1(C)C(=O)N(Cc2ccc(OC)cc2OC)c2ccc(Cl)cc21

>  <cat>
YES

$$$$
>  <molecule>
CC[C@@H]1C[C@H](N(Cc2cc(C(F)(F)F)cc(C(F)(F)F)c2)C(C)=O)c2cc(C(F)(F)F)ccc2N1C(=O)OC(C)C

>  <cat>
NO

$$$$
>  <molecule>
c1ccc2n[nH]nc2c1

>  <cat>
NO

$$$$
>  <molecule>
C[C@]12CC[C@@H]3c4ccc(O)cc4CC[C@H]3[C@@H]1CCC2=O

>  <cat>
YES

$$$$
>  <molecule>
Clc1ccccc1C(c1ccccc1)(c1ccccc1)n1ccnc1

>  <cat>
YES

$$$$
>  <molecule>
O=C(O)c1ccccc1C(=O)OCc1ccccc1

>  <cat>
NO

$$$$
>  <molecule>
c1ccc(C[n+]2cccc3ccccc32)cc1

>  <cat>
NO

$$$$
>  <molecule>
Clc1cc(Cl)c2c(c1)N=C1CCCCCN1C2

>  <cat>
NO

$$$$
>  <molecule>
CCCCOC(=O)c1ccc(O)cc1

>  <cat>
NO

$$$$
>  <molecule>
O=C1O[C@H]([C@@H](O)CO)C(O)=C1O

>  <cat>
NO

$$$$
>  <molecule>
O=C(Nc1ccc(Cl)cc1)Nc1ccc(Cl)c(Cl)c1

>  <cat>
YES

$$$$
>  <molecule>
O=C1CCC(C2CCCCC2)CC1

>  <cat>
NO

$$$$
>  <molecule>
O=C(O)Cn1c(=O)n(Cc2ccc(Br)cc2F)c(=O)c2ccc(Cl)cc21

>  <cat>
NO

$$$$
>  <molecule>
CC(O)CC(C)(C)O (configuration not stated)

>  <cat>
NO

$$$$
>  <molecule>
CN(C)c1ccc(C(=C2C=CC(=[N+](C)C)C=C2)c2ccc(N(C)C)cc2)cc1

>  <cat>
YES

$$$$
>  <molecule>
Cc1occc1C(=O)Nc1ccc(C(=O)N2CCC(F)(F)/C(=C\C(=O)N3CCC(N4CCCCC4)CC3)c3ccccc32)cc1

>  <cat>
NO

$$$$
>  <molecule>
O=CCCCC=O

>  <cat>
YES

$$$$
>  <molecule>
Cc1cn([C@H]2C[C@H](N=[N+]=[N-])[C@@H](CO)O2)c(=O)[nH]c1=O

>  <cat>
NO

$$$$
>  <molecule>
COc1cc(C(=O)NC2CCN(C)CC2)ccc1Nc1ncc2c(n1)N(C1CCCC1)CC(F)(F)C(=O)N2C

>  <cat>
YES

$$$$
>  <molecule>
Cc1cccc2ccccc12

>  <cat>
NO

$$$$
>  <molecule>
Cc1cc2c(cc1C(F)(F)F)N(C(=O)Nc1ccc(Oc3cccnc3C)nc1)CC2

>  <cat>
YES

$$$$
>  <molecule>
O=C(OCCCCCCOC(=O)c1ccccc1)c1ccccc1

>  <cat>
NO

$$$$
>  <molecule>
CC(C)(C)c1cc(/C=C2\SC(N)=NC2=O)cc(C(C)(C)C)c1O

>  <cat>
YES

$$$$
>  <molecule>
CC/C(=C(/CC)c1ccc(O)cc1)c1ccc(O)cc1

>  <cat>
YES

$$$$
>  <molecule>
CC(=O)N1CCN(c2ccc(OC[C@H]3CO[C@](Cn4ccnc4)(c4ccc(Cl)cc4Cl)O3)cc2)CC1

>  <cat>
YES

$$$$
>  <molecule>
CCCCOC(=O)CC(CC(=O)OCCCC)(OC(C)=O)C(=O)OCCCC

>  <cat>
NO

$$$$
>  <molecule>
CC1(C)NC(=O)N(c2ccc([N+](=O)[O-])c(C(F)(F)F)c2)C1=O

>  <cat>
NO

$$$$
>  <molecule>
CCCCCc1ccc(N)cc1

>  <cat>
YES

$$$$

* * *

assay-name: APR_HepG2_MicrotubuleCSK_24hr: Apredica 24-hour HepG2 Assay for Microtubule CSK Stabilty (AID 2282909)
condition-context: HepG2 microtubule cytoskeleton imaging, actives raise or lower the signal
Active and inactive are the calls of the source. The calls were made as follows: active = hit-call score of the fitted dose curve at least 0.9, where 1 is the maximum; inactive = score below 0.9.
Classes used: yes (active), no (inactive)

>  <compound>
Oc1ccc2ccccc2c1

>  <cat>
no

$$$$
>  <compound>
Cc1cc2c(cc1C(F)(F)F)N(C(=O)Nc1ccc(Oc3cccnc3C)nc1)CC2

>  <cat>
yes

$$$$
>  <compound>
CCCCCCCCOC(=O)c1cc(O)c(O)c(O)c1

>  <cat>
yes

$$$$
>  <compound>
CN(C)c1ccc(C(=C2C=CC(=[N+](C)C)C=C2)c2ccc(N(C)C)cc2)cc1

>  <cat>
yes

$$$$
>  <compound>
CCCOC(=O)c1cc(O)c(O)c(O)c1

>  <cat>
no

$$$$
>  <compound>
OCCO

>  <cat>
no

$$$$
>  <compound>
O=C(O)Cn1c(=O)n(Cc2ccc(Br)cc2F)c(=O)c2ccc(Cl)cc21

>  <cat>
no

$$$$
>  <compound>
CC1(C)NC(=O)N(c2ccc([N+](=O)[O-])c(C(F)(F)F)c2)C1=O

>  <cat>
no

$$$$
>  <compound>
O=C(Nc1ccc(Cl)cc1)Nc1ccc(Cl)c(Cl)c1

>  <cat>
no

$$$$
>  <compound>
CCCC(=O)OCCC(C)C

>  <cat>
no

$$$$
>  <compound>
CN(C)C(=O)C1(N2CCCCC2)CCN(CC[C@@]2(c3ccc(Cl)c(Cl)c3)CN(C(=O)c3ccccc3)CCO2)CC1

>  <cat>
yes

$$$$
>  <compound>
CN1C(=O)N(c2ccccc2Br)Cc2cnc(Nc3ccc4c(c3)OCC(CO)O4)nc21 (centres undefined)

>  <cat>
no

$$$$
>  <compound>
CCCCOC(=O)c1ccc(O)cc1

>  <cat>
no

$$$$
>  <compound>
C[C@]12CC[C@@H]3c4ccc(O)cc4CC[C@H]3[C@@H]1CCC2=O

>  <cat>
no

$$$$

* * *

Read-out: Low-density lipoprotein receptor (LDLR), LDLR (gene 3949)
assay-name: BSK_CASM3C_LDLR: BioMAP Diversity Plus: CASM3C Assay for Low-density lipoprotein receptor (LDLR) Biomarker Activity (AID 2283045);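 further: LDLR protein level on the cell surface quantified by ELISA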
condition-context: primary human coronary artery smooth muscle cells; actives raise or lower the signal
Activity calls are given as the source filed them. How the source made its calls: active means hit-call score of the fitted dose curve at least 0.9, where 1 is the maximum; inactive means score below 0.9.
Classes used: active, inactive

>  <structure-smiles-string>
Oc1ccc2ccccc2c1

>  <cat>
inactive

$$$$
>  <structure-smiles-string>
Cc1cc2c(cc1C(F)(F)F)N(C(=O)Nc1ccc(Oc3cccnc3C)nc1)CC2

>  <cat>
active

$$$$
>  <structure-smiles-string>
CCCCCCCCCCCO

>  <cat>
inactive

$$$$
>  <structure-smiles-string>
NCc1cccc(C2CCN(C(=O)c3ccc(C#Cc4ccccc4F)o3)CC2)c1

>  <cat>
active

$$$$
>  <structure-smiles-string>
CN(C)C(=O)C1(N2CCCCC2)CCN(CC[C@@]2(c3ccc(Cl)c(Cl)c3)CN(C(=O)c3ccccc3)CCO2)CC1

>  <cat>
active

$$$$
>  <structure-smiles-string>
Cc1ccc2oc(CN(Cc3ccccc3)C(=O)Nc3c(F)cc(F)cc3F)c(-c3ccc(Cl)cc3)c2c1

>  <cat>
inactive

$$$$
>  <structure-smiles-string>
CCCCCc1ccc(N)cc1

>  <cat>
inactive

$$$$
>  <structure-smiles-string>
CC1(C)NC(=O)N(c2ccc([N+](=O)[O-])c(C(F)(F)F)c2)C1=O

>  <cat>
inactive

$$$$
>  <structure-smiles-string>
CC[C@H](NC(=O)c1cc(F)ccc1NS(=O)(=O)c1cccc2cccnc12)c1ccccc1

>  <cat>
active

$$$$
>  <structure-smiles-string>
CO[C@H]1/C=C/O[C@@]2(C)Oc3c(C)c(O)c4c(O)c(c(/C=N/N5CCN(C)CC5)c(O)c4c3C2=O)NC(=O)/C(C)=C\C=C\[C@H](C)[C@H](O)[C@@H](C)[C@@H](O)[C@@H](C)[C@H](OC(C)=O)[C@@H]1C

>  <cat>
inactive

$$$$
>  <structure-smiles-string>
O=C(O)c1ccccc1C(=O)OCc1ccccc1

>  <cat>
inactive

$$$$
>  <structure-smiles-string>
O=C(OCCCCCCOC(=O)c1ccccc1)c1ccccc1

>  <cat>
inactive

$$$$
>  <structure-smiles-string>
Cc1occc1C(=O)Nc1ccc(C(=O)N2CCC(F)(F)/C(=C\C(=O)N3CCC(N4CCCCC4)CC3)c3ccccc32)cc1

>  <cat>
active

$$$$
>  <structure-smiles-string>
CCN(Cc1cccnc1)C(=O)c1cccc(Cl)c1[C@]1(C)C(=O)N(Cc2ccc(OC)cc2OC)c2ccc(Cl)cc21

>  <cat>
active

$$$$
>  <structure-smiles-string>
CCCOC(=O)c1cc(O)c(O)c(O)c1

>  <cat>
inactive

$$$$
>  <structure-smiles-string>
O=CCCCC=O

>  <cat>
inactive

$$$$
>  <structure-smiles-string>
COc1cccc([C@H](O)C2CCN(CCc3ccc(F)cc3)CC2)c1OC

>  <cat>
inactive

$$$$
>  <structure-smiles-string>
COc1cc(C(=O)NC2CCN(C)CC2)ccc1Nc1ncc2c(n1)N(C1CCCC1)CC(F)(F)C(=O)N2C

>  <cat>
active

$$$$
>  <structure-smiles-string>
CC(C)(C)c1csc(-c2cc3cc(OCc4ccccc4CC(=O)O)ccc3o2)n1

>  <cat>
inactive

$$$$
>  <structure-smiles-string>
O=c1ccc2ccccc2o1

>  <cat>
inactive

$$$$
